Exercise: for every item that follows, state its recorded K.
Assay: Cysteamine reactivity of the compound in TRIS-HCL assessed as second order rate constant at 40 uM and pH 7.4 by stopped-flow assay
Numbers only, in M⁻¹ s⁻¹.

Please review the entries below; each comes with its answer.
In [3]: df
Out[3]:
                                   compound  measurement_units  result_value
0  COc1ccc(C(=O)C(Br)C(SCCN)c2ccc(OC)c(OC)c2)c(OC)c1 (centres undefined)            M⁻¹ s⁻¹           2.9
1  COc1ccc(C(=O)C(C(SCCN)c2ccc(OC)c(OC)c2)C(F)(F)F)c(OC)c1 (centres undefined)            M⁻¹ s⁻¹            17
2  COc1ccc(C(=O)C(C(SCCN)c2ccc(OC)c(OC)c2)[N+](=O)[O-])c(OC)c1 (centres undefined)            M⁻¹ s⁻¹           750

Kindly review the next compound as well.
Determine its reported K: COc1ccc(C(=O)C(C#N)C(SCCN)c2ccc(OC)c(OC)c2)c(OC)c1 (centres undefined)
5700

----------
Assay: DTT reactivity of the compound in acetonitrile to tris-HCL buffer at pH 7.4 by NMR spectroscopic analysis
Exercise: for every item that follows, state its recorded DTT second-order rate constant.

Please review the entries below; each comes with its answer.
>>> print(df.to_string())
                           record_smiles  result_value
0  O=C1/C(=C/c2ccccc2O)CC/C1=C\c1ccccc1O    29 M⁻¹ s⁻¹
1        O=C(/C=C/c1ccccc1)/C=C/c1ccccc1  0.42 M⁻¹ s⁻¹
2      O=C(/C=C/c1ccccc1O)/C=C/c1ccccc1O   2.5 M⁻¹ s⁻¹

# return DTT second-order rate constant for each item in the list
1. O=C1/C(=C/c2ccccc2)CC/C1=C\c1ccccc1
2. O=C(/C=C/c1ccc(O)cc1)/C=C/c1ccc(O)cc1

1: 2.3 M⁻¹ s⁻¹; 2: 0.014 M⁻¹ s⁻¹

----------
Test: Glutathione reactivity of the compound in acetonitrile to tris-HCL buffer at pH 7.4 by NMR spectroscopic analysis
Exercise: for every item that follows, state its recorded log10(Activity).
Please interpret these as log10 of Activity where Activity is in M⁻¹ s⁻¹.

Please review the entries below; each comes with its answer.
>>> df
                           record_smiles  result_value
0      O=C(/C=C/c1ccccc1O)/C=C/c1ccccc1O          0.70
1  O=C(/C=C/c1ccc(O)cc1)/C=C/c1ccc(O)cc1         -3.00
2        O=C(/C=C/c1ccccc1)/C=C/c1ccccc1         -0.82

# return log10(Activity) for each item in the list
1. O=C1/C(=C/c2ccccc2)CC/C1=C\c1ccccc1
2. O=C1/C(=C/c2ccccc2O)CC/C1=C\c1ccccc1O

0.97
1.94

----------
Test system: Tetrahymena pyriformis
Assay: Toxicity in Tetrahymena pyriformis assessed as growth inhibition after 48 hrs
Exercise: for every item that follows, state its recorded EC50.
One number for each entry, in µM.

In [3]: df
Out[3]:
        compound  result_value
0  C=C(C)C(=O)OC         16600
1    C#CC(=O)OCC            17
2    CCCCCC#CC=O            19
3  CC1=CC(=O)CC1         20900
4    C=CC(=O)CCC            22

Kindly review the next compound as well.
Provide EC50, system Tetrahymena pyriformis, entry C/C=C(\C)C=O [2-methyl-(E)-2-butenal]
1380

----------
Tested on: rhinovirus B14
Test: Irreversible inhibition of human rhinovirus serotype 14 3C protease assessed as ratio of Kobs/I by spectrofluorimetric analysis
Tag: satisfied if measured Ratio is not below 7000 M⁻¹ s⁻¹, not satisfied if it is.

In [3]: df
Out[3]:
                              record_smiles  target_or_system    group_label
0  CC(=O)/C=C/[C@H](CCC(N)=O)NC(=O)[C@H](Cc1ccccc1)NC(=O)[C@H](CC(C)C)NC(=O)OCc1ccccc1    rhinovirus B14      satisfied
1  CCOC(=O)/C(C)=C/[C@H](CCC(N)=O)NC(=O)[C@H](Cc1ccccc1)NC(=O)[C@H](CC(C)C)NC(=O)OCc1ccccc1    rhinovirus B14      satisfied
2  CC(C)C[C@H](NC(=O)OCc1ccccc1)C(=O)N[C@@H](Cc1ccccc1)C(=O)N[C@H](/C=C/C(=O)c1ccccc1)CCC(N)=O    rhinovirus B14      satisfied
3  CCNC(=O)/C=C/[C@H](CCC(N)=O)NC(=O)[C@H](Cc1ccccc1)NC(=O)[C@H](CC(C)C)NC(=O)OCc1ccccc1    rhinovirus B14  not satisfied

Hi, just wondering whether CC(C)C[C@H](NC(=O)OCc1ccccc1)C(=O)N[C@@H](Cc1ccccc1)C(=O)N[C@H](/C=C/C(=O)O)CCC(N)=O shows Ratio of 7000 M⁻¹ s⁻¹ or higher.
not satisfied

Hi, just wondering whether CCOC(=O)/C(F)=C/[C@H](CCC(N)=O)NC(=O)[C@H](Cc1ccccc1)NC(=O)[C@H](CC(C)C)NC(=O)OCc1ccccc1 shows Ratio of 7000 M⁻¹ s⁻¹ or higher.
not satisfied

Hi, just wondering whether CC(C)C[C@H](NC(=O)OCc1ccccc1)C(=O)N[C@@H](Cc1ccccc1)C(=O)N[C@H](/C=C/C(=O)N(C)C)CCC(N)=O shows Ratio of 7000 M⁻¹ s⁻¹ or higher.
not satisfied

----------
System: rhinovirus B14
Assay: Antiviral activity against rhinovirus serotype 14 infected in human H1HeLa cells after 2 days by XTT/PMS dye based assay
Format: functional, cell-based
Conditions: Rhinovirus B, H1-HeLa, 48 h
Exercise: for every item that follows, state its recorded EC50.
Answers are plain numbers, in µM.

>>> df
                              record_smiles  result_value
0  CCOC(=O)/C(C)=C/[C@H](CCC(N)=O)NC(=O)[C@H](Cc1ccccc1)NC(=O)[C@H](CC(C)C)NC(=O)OCc1ccccc1             3

Provide EC50, system rhinovirus B14, entry CC(C)C[C@H](NC(=O)OCc1ccccc1)C(=O)N[C@@H](Cc1ccccc1)C(=O)N[C@H](/C=C1\CCOC1=O)CCC(N)=O
5.2

----------
Exercise: for every item that follows, state its recorded CC50 at 48 h.
Experiment: Cytotoxicity against human H1HeLa cells after 2 days by XTT/PMS dye based assay
Assay type: cell-based, H1-HeLa
Give bare numbers, in µM.

In [3]: df
Out[3]:
                              record_smiles  result_value
0  CCN(CC)c1ccc(C(=O)/C=C/[C@H](CCC(N)=O)NC(=O)[C@H](Cc2ccccc2)NC(=O)[C@H](CC(C)C)NC(=O)OCc2ccccc2)cc1            25

# return CC50 at 48 h for each item in the list
1. CC(C)C[C@H](NC(=O)OCc1ccccc1)C(=O)N[C@@H](Cc1ccccc1)C(=O)N[C@H](/C=C/C(=O)c1ccc([N+](=O)[O-])cc1)CCC(N)=O
2. CC(C)C[C@H](NC(=O)OCc1ccccc1)C(=O)N[C@@H](Cc1ccccc1)C(=O)N[C@H](/C=C/C(=O)c1ccccc1)CCC(N)=O
3. CC(C)C[C@H](NC(=O)OCc1ccccc1)C(=O)N[C@@H](Cc1ccccc1)C(=O)N[C@H](/C=C/C(=O)n1ccc2ccccc21)CCC(N)=O

[32, 16, 29]

----------
Biological target: Sodium-dependent dopamine transporter (Rattus norvegicus, UniProt P23977)
Sequence (P23977 whole entry): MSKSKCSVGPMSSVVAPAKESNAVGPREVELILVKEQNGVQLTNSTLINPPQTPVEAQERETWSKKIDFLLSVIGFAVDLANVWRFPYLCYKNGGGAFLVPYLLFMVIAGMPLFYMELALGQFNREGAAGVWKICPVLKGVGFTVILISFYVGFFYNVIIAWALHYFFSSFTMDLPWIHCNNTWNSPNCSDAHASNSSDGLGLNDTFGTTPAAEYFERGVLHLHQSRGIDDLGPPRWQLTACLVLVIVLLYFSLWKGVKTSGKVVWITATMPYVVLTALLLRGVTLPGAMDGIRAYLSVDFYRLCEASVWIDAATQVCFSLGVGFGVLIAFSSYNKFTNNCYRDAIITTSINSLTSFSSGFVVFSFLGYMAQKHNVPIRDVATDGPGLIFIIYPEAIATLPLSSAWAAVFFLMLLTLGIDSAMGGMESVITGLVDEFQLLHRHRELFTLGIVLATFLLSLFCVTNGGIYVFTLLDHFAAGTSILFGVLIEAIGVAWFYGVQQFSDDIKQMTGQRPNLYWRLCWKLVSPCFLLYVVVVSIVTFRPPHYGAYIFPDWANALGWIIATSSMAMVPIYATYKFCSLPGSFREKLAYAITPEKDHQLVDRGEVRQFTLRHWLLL
Assay: Inhibition of [3H]dopamine uptake at DAT in rat brain striatal synaptosomes by liquid scintillation counting analysis
Exercise: for every item that follows, state its recorded pIC50.
Numbers only, as −log10 of the molar value.

>>> df
                              molecule                          target_or_system  result_value
0                    C=CC=O [ACROLEIN]  Sodium-dependent dopamine transporter (Rattus norvegicus, UniProt P23977)          4.28
1  CCN1C(=O)C=CC1=O [N-ETHYLMALEIMIDE]  Sodium-dependent dopamine transporter (Rattus norvegicus, UniProt P23977)          4.33

Kindly review the next molecule as well.
Determine its reported pIC50: C=CC(C)=O
3.48

----------
Test: Cysteamine reactivity of the compound in TRIS-HCL assessed as second order rate constant at 40 uM and pH 7.4
measured_parameter: log10 of K (log10 of the value in M⁻¹ s⁻¹)
Please interpret these as log10 of K where K is in M⁻¹ s⁻¹.

Please review the entries below; each comes with its answer.
                                   compound  result_value
0  COc1ccc(C(=O)C(C)C(SCCN)c2ccc(OC)c(OC)c2)c(OC)c1 (configuration not stated)         -2.12
1  CCOC(=O)C(C(=O)c1ccc(OC)cc1OC)C(SCCN)c1ccc(OC)c(OC)c1 (configuration not stated)         -0.55
2                O=C(/C=C/c1ccccc1)c1ccccc1          0.48
3                          O=C/C=C/c1ccccc1         -0.19
4  COc1ccc(C(=O)C(F)C(SCCN)c2ccc(OC)c(OC)c2)c(OC)c1 (configuration not stated)         -1.77

# return log10 of K for each item in the list
1. COc1ccc(C(=O)C(c2ccc([N+](=O)[O-])cc2)C(SCCN)c2ccc(OC)c(OC)c2)c(OC)c1 (configuration not stated)
2. COc1ccc(C(=O)C(C(=O)O)C(SCCN)c2ccc(OC)c(OC)c2)c(OC)c1 (configuration not stated)

1: -0.54; 2: -2.43
